tested on: Human gammaherpesvirus 4; test: In vitro cytotoxic concentration required to inhibit Epstein-Barr virus (EBV) replication in Daudi cells; format: functional; settings: human gammaherpesvirus 4, Daudi
property-measured: CC50

INSERT INTO assay_data (smiles_string, property_measured, result) VALUES
  ('Cc1cn(/C=C2/CC2(CO)CO)c(=O)[nH]c1=O', 'CC50', '> 210 µM'),
  ('Nc1nc(N)c2ncn(C=C3CC3(CO)CO)c2n1', 'CC50', '> 191 µM'),
  ('Nc1nc(Cl)c2ncn(C=C3CC3(CO)CO)c2n1', 'CC50', '> 178 µM');

Form: Entry = Nc1ccn(/C=C2\CC2(CO)CO)c(=O)n1 | System = Human gammaherpesvirus 4 | CC50 = ____ > 224 µM

Now the compound Nc1nc(NC2CC2)c2ncn(/C=C3/CC3(CO)CO)c2n1 > 165 µM

Now the compound Nc1nc(F)c2ncn(C=C3CC3(CO)CO)c2n1 > 189 µM
